Hi there, I'd appreciate the recorded mutEGFR (D770_N771insSVD) kinase assay IC50 for every entry that follows.
# Assay System: EGFR with insertion SVD between D770 and N771 (mutEGFR D770_N771insSVD) (Homo sapiens, UniProt P00533, DUP768-770)
# Construct: amino acids R669 to A1210; made in house; host or cells: Sf9 insect cells (baculovirus)
# Sequence (P00533 other isoform, or with tags, fused parts or gaps DUP768-770): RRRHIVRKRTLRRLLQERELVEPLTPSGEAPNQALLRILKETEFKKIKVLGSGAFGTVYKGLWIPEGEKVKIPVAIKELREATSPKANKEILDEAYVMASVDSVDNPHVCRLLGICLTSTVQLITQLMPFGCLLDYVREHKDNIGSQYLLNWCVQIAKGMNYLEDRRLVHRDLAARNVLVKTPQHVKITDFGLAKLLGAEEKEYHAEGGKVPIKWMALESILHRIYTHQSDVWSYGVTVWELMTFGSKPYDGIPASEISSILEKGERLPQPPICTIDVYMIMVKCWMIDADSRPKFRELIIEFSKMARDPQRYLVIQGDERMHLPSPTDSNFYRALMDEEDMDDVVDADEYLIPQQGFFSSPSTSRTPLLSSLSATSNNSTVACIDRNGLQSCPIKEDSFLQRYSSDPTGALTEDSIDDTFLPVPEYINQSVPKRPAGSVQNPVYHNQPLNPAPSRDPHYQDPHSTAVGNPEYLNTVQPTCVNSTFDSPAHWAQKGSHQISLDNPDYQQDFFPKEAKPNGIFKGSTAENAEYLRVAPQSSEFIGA
# Assay Protocol: Exon20-Mutant-EGFR(D770_N771insSVD) kinase assay (TR-FRET)
# Type: biochemical
# Condition Description: 2 mM ATP, Table 2
Write down the numeric answer in pM and omit the unit.

Recorded mutEGFR (D770_N771insSVD) kinase assay IC50 (compound COc1c(Cl)cccc1Nc1c(-c2ccncc2OCC2COCCO2)[nH]c2c1C(=O)N[C@@H]1CCC[C@H]21 (single isomer, unassigned) [Example 53] ): 282

mutEGFR (D770_N771insSVD) kinase assay IC50 reading for COc1c(Cl)cccc1Nc1c(-c2ccncc2OCC2CCCCN2C)[nH]c2c1C(=O)N[C@H](C)C2 (mixture of isomers) [Example 83] : 849

GET /value?item= Cc1c(Cl)cccc1Nc1c(-c2ccncc2OCC2COCCO2)[nH]c2c1C(=O)NCC2C (single isomer, unassigned) [Example 67] &field=mutEGFR (D770_N771insSVD) kinase assay IC50 returns 252

Value of mutEGFR (D770_N771insSVD) kinase assay IC50 reported for the compound COc1c(Cl)cccc1Nc1c(-c2ccncc2OC[C@@H]2CCCO2)[nH]c2c1C(=O)N[C@@H]1CCC[C@H]21 [Example 56] is 194

Recorded mutEGFR (D770_N771insSVD) kinase assay IC50 (compound COc1c(Cl)cccc1Nc1c(-c2ccncc2OCC(C)(C)OC)[nH]c2c1C(=O)NCC2CCO (single isomer, unassigned) [Example 15] ): 158

response.value for COc1c(Cl)cccc1Nc1c(-c2ccncc2OCC2COCCO2)[nH]c2c1C(=O)N[C@@H]1CCC[C@H]21 (mixture of isomers) [Example 52] (field: mutEGFR (D770_N771insSVD) kinase assay IC50) = 142

---

# Assay System: Ba/F3-EGFR-D770_N771insSVD cells (Homo sapiens, UniProt P00533, DUP768-770, cells depend on it)
# Sequence (P00533 with tags, fused parts or gaps DUP768-770): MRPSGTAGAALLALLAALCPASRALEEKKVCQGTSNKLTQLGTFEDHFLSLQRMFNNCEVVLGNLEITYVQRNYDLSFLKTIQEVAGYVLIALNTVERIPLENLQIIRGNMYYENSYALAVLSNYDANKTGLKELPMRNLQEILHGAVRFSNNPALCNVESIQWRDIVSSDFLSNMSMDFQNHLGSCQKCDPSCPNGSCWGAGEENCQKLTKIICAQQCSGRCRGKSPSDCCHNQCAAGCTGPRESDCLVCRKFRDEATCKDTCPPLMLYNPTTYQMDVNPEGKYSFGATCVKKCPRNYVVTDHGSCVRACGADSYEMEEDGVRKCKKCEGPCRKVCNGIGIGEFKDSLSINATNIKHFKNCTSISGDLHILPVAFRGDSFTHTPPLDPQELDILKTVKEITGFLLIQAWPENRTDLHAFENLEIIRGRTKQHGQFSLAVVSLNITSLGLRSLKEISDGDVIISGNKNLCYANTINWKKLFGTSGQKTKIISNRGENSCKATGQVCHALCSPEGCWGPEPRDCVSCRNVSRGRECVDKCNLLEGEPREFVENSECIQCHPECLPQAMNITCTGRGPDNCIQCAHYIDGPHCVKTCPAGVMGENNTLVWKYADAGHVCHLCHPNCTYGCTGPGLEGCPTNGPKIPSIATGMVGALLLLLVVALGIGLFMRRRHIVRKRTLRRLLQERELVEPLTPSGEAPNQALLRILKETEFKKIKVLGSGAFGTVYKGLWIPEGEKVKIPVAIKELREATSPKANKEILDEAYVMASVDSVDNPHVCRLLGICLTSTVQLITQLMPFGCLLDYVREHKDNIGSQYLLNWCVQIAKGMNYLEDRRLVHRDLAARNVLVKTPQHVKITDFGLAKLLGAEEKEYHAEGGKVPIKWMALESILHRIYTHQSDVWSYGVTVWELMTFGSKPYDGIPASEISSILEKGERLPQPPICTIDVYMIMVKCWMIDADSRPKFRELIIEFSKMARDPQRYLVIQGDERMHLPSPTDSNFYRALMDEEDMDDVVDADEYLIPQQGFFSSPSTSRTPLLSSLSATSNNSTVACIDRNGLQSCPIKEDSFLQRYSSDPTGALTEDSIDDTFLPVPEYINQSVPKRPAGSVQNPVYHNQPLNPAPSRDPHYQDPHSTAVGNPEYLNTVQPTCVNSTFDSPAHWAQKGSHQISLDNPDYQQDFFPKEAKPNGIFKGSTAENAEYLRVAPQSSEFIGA
# Assay Protocol: Ba/F3 cell survival assay, EGFR D770_N771insSVD
# Assay type: cell-based
# Condition Description: Cell Titer-Glo, 48 h, without IL-3; Table 4; read-out: BA/F3 (insSVD) IC50
Consider the following partition of reported GI50 into named classes: bottom range = under 40 nM, center range = from 40 nM up to 70 nM, top range = 70 nM and over

query: Classify this compound: COc1c(Cl)cccc1Nc1c(-c2ccncc2OCC2CCCCO2)[nH]c2c1C(=O)NCC2C (single isomer, unassigned) [Example 46]
result: top range

query: Category lookup for the compound COc1c(Cl)cccc1Nc1c(-c2ccncc2OCC2COC(C)(C)CO2)[nH]c2c1C(=O)NCC2C (single isomer, unassigned) [Example 94]
result: center range

query: Class label required: COc1c(Cl)cccc1Nc1c(-c2ccncc2OCC2OCCC2(F)F)[nH]c2c1C(=O)N[C@H](C)C2 (single isomer, unassigned) [Example 73]
result: center range

query: Assign a bin to COc1c(Cl)cccc1Nc1c(-c2ccncc2OCC2(C)CCO2)[nH]c2c1C(=O)NCC2CCO (single isomer, unassigned) [Example 22]
result: top range

query: Which class holds COc1c(Cl)cccc1Nc1c(-c2ccncc2OCC2CCCCO2)[nH]c2c1C(=O)N[C@H](C)C2 (mixture of isomers) [Example 27] ?
result: bottom range

query: Consider Cc1c(Cl)cccc1Nc1c(-c2ccncc2OCC2COCCO2)[nH]c2c1C(=O)NCC2C (single isomer, unassigned) [Example 67] . To which GI50 class does it belong?
result: bottom range

query: Form: Item = COc1c(Cl)cccc1Nc1c(-c2ccncc2OCC2COCCO2)[nH]c2c1C(=O)NCC2C (single isomer, unassigned) [Example 36] ; Class = ?
result: top range

query: Into which bin does this compound go? COc1c(Cl)cccc1Nc1c(-c2ccncc2OCC2COC(C)(C)CO2)[nH]c2c1C(=O)NC1(CC1)C2 (stereo not shown) [Example 132]
result: center range

query: Determine which band this compound sits in: COc1c(Cl)cccc1Nc1c(-c2ccncc2OCC2COCCO2)[nH]c2c1C(=O)N[C@H](C)C2 (single isomer, unassigned) [Example 26]
result: center range

query: Dear colleague, I would appreciate it if you could identify the bin for Cc1c(Cl)cccc1Nc1c(-c2ccncc2OCC2OCCCC2(F)F)[nH]c2c1C(=O)NCC2C (stereo not shown) and reply at your convenience.
result: bottom range

query: Could you place COc1c(Cl)cccc1Nc1c(-c2ccncc2OCC2OCCCC2(F)F)[nH]c2c1C(=O)N[C@H](C)C2 (mixture of isomers) [Example 74] in its proper category? Many thanks.
result: bottom range

query: // return the class label for COc1c(Cl)cccc1Nc1c(-c2ccncc2OCC2COC(C)(C)CO2)[nH]c2c1C(=O)NCC2C (single isomer, unassigned) [Example 95]
result: bottom range

query: Hey, which category is COc1c(Cl)cccc1Nc1c(-c2ccncc2OCC2CCCCO2)[nH]c2c1C(=O)N[C@H](C)C2 (single isomer, unassigned) [Example 29] in, do you know?
result: bottom range

query: Any idea which band Cc1c(Cl)cccc1Nc1c(-c2ccncc2OCC2COCCO2)[nH]c2c1C(=O)NCC2C (single isomer, unassigned) [Example 68] is in?
result: center range

query: Returns: class label. Input: COc1c(Cl)cccc1Nc1c(-c2ccncc2OC[C@@H]2CCCO2)[nH]c2c1C(=O)NCC2CC=C(F)F (single isomer, unassigned) [Example 101]
result: center range

query: Determine which band this compound sits in: COc1c(Cl)cccc1Nc1c(-c2ccncc2OCC2(C)CCO2)[nH]c2c1C(=O)NCC2CCO (single isomer, unassigned) [Example 20]
result: top range

query: Bin? COc1c(F)cccc1Nc1c(-c2ccncc2OC[C@@H]2CCCO2)[nH]c2c1C(=O)NC(C)C2 (mixture of isomers) [Example 8]
result: top range

query: Please classify: Cc1c(Cl)cccc1Nc1c(-c2ccncc2OCC2COCCO2)[nH]c2c1C(=O)NCC2C (stereo not shown) [Example 66]
result: center range

query: For this compound, which bin applies? CCc1c(Cl)cccc1Nc1c(-c2ccncc2OC[C@@H]2CCCO2)[nH]c2c1C(=O)N[C@H](C)C2
result: center range

query: GET /class?item= COc1c(Cl)cccc1Nc1c(-c2ccncc2OCC2OCCC2(F)F)[nH]c2c1C(=O)N[C@H](C)C2 (mixture of isomers) [Example 71]
result: center range

query: Each compound maps to one class by GI50. Which class for COc1c(Cl)cccc1Nc1c(-c2ccncc2OCC(C)(C)OC)[nH]c2c1C(=O)NCC2CCO (single isomer, unassigned) [Example 15] ?
result: top range

query: // bin(item) where item = COc1c(Cl)cccc1Nc1c(-c2ccncc2OCC(C)(C)OC)[nH]c2c1C(=O)N[C@@H](C)C2
result: center range

query: Band assignment needed for COc1c(Cl)cccc1Nc1c(-c2ccncc2OCC2OCCCC2(F)F)[nH]c2c1C(=O)N[C@H](C)C2 (single isomer, unassigned) [Example 75] please.
result: bottom range

query: Class? Entry: Cc1c(Cl)cccc1Nc1c(-c2ccncc2OCC2COC(C)(C)CO2)[nH]c2c1C(=O)NCC2C (stereo not shown)
result: center range

// provenance: patent US20230064983A1
